Task for the reader: assign each of the following molecules its reported pEC50.
Molecular target: UniProt:P35367
Assay: In vitro histamine receptor cell-based assay (aequorin bioluminescence), H1 antagonism
Settings: CHO-K1 cells expressing human H1 and aequorin; histamine at EC80; read-out: H1 Antagonist EC50
pEC50: −log10 of the molar value. Where a name gives a salt, the structure may show the parent alone.

Q) Report pEC50 for Cc1nc2c3cc(Cl)ccc3nc(N3CCN(C)CC3)n2n1 please.
A) < 5.00

Q) Also need Cc1ccc2nc(N3CCN(C)CC3)n3nc(C)nc3c2c1 , thanks.
A) < 5.00

Q) Check Fc1cc2nc(N3CCNCC3)c3nccn3c2cc1F too.
A) > 5.00

Q) Another molecule to look at: Cc1nc2c(N3CCNCC3)nc3cc(F)c(Cl)cc3c2o1
A) < 5.00

Q) Could you do the same for CN1CCN(c2nc3ccc(Br)cc3n3cnnc23)CC1 , please?
A) < 5.00

Q) Record: Cc1nc2c3c(F)c(C(F)(F)F)ccc3nc(N3CCN(C)CC3)n2n1.Cl [Example 126, hydrochloride]
A) < 5.00

Q) Can you check CN1CCN(c2nc3ccc(Cl)cc3n3nnnc23)CC1 next?
A) < 5.00

Q) Next: CC(C)(C)OC(=O)N1CCN(c2nc3ccc(Cl)cc3n3cnnc23)CC1
A) < 5.00

Q) Continue with Brc1ccc2c(c1)nc(N1CCNCC1)c1nncn12
A) < 5.00

Q) Try the molecule CN1CCN(c2nc3cc(C(F)(F)F)c(Cl)cc3n3cnnc23)CC1
A) < 5.00

Q) Next record, please: Cc1nc2c3cc(C(F)(F)F)c(F)cc3nc(N3CCNCC3)n2n1.Cl [Example 125, hydrochloride]
A) < 5.00

Q) Next up: CN1CCN(c2nc3ccc(Cl)cc3c3c[nH]nc23)CC1
A) < 5.00

Q) Entry Cc1nc2c3cc(C(F)(F)F)ccc3nc(N3CCNCC3)n2n1 please
A) < 5.00

Q) Now this one: CCc1nc2c3cc(Cl)ccc3nc(N3CCNCC3)n2n1
A) < 5.00

Q) Try Cc1nc2c3cc(Cl)c(C(F)(F)F)cc3nc(N3CCN(C)CC3)n2n1 [Example 131, hydrochloride] next.
A) < 5.00

Q) Entry Cc1nc2c3cc(C(F)(F)F)cc(F)c3nc(N3CCN(C)CC3)n2n1.Cl [Example 127, hydrochloride] please
A) < 5.00

Q) Same thing, different molecule: Cc1nc2c3cc(OC(F)(F)F)ccc3nc(N3CCN(C)CC3)n2n1.Cl [Example 133, hydrochloride]
A) < 5.00

Q) Try CN1CCN(c2nc3cc(Br)ccc3n3nnnc23)CC1 next.
A) < 5.00

Q) Follow-up entry: Clc1ccc2nc(N3CC4CNCC4C3)c3nncn3c2c1 (stereo not shown)
A) < 5.00

====

Task for the reader: assign each of the following compounds its reported EC50.
Target: human H1 (Homo sapiens)
Sequence (P35367 whole entry): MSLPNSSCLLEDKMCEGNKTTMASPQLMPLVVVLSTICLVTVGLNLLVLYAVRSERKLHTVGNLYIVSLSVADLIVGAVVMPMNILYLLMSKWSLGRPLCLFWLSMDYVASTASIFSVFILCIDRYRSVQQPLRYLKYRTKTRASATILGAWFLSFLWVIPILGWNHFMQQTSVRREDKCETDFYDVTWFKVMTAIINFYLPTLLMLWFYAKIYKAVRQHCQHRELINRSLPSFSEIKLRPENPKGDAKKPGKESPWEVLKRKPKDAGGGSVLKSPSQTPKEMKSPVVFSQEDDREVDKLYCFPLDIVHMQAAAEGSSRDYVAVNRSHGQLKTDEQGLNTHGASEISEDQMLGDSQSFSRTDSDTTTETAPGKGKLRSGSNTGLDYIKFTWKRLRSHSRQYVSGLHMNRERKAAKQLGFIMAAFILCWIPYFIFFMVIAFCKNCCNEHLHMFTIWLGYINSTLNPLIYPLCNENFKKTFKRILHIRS
Experiment: In vitro histamine receptor cell-based assay (aequorin bioluminescence), H1 antagonism
Conditions: CHO-K1 cells expressing human H1 and aequorin; histamine at EC80; read-out: H1 Antagonist EC50
Counter-ions that a name gives are not always drawn.

Q) Data request, read-out EC50, for C=Cc1ccc2nc(N3CCNCC3)n3nc(C)nc3c2c1
A) > 10 µM

Q) Similarly, CN1CCN(c2nc3ccc(C(F)(F)F)cc3c3conc23)CC1 ?
A) > 10 µM

Q) Query Cc1nc2c3cc(F)c(F)cc3nc(N3CCNCC3)n2n1 next
A) > 10 µM

Q) Okay, and C=Cc1ccc2nc(N3CCN(C)CC3)n3nc(C)nc3c2c1 ?
A) > 10 µM

Q) Continue with Clc1ccc2nc(OC3CCNCC3)c3nncn3c2c1
A) > 10 µM

Q) Repeat with Clc1ccc2nc(NCCN3CCOCC3)c3nncn3c2c1
A) > 10 µM

Q) # repeat for Clc1ccc2nc(N3CCNCC3)n3nnnc3c2c1
A) > 10 µM

Q) Request: CN1CCN(c2nc3ccc(Cl)cc3c3nncn23)CC1
A) < 10 µM

Q) Also check CN1CCN(c2nc3cc(Br)ccc3n3cnnc23)CC1
A) > 10 µM

Q) Try the compound Cc1nc2c(N3CCNCC3)nc3cc(F)c(F)cc3c2o1
A) < 10 µM

Q) How about CC1(C)CN(c2nc3ccc(Cl)cc3n3cnnc23)CCN1 ?
A) > 10 µM

Q) Next record, please: Cc1nc2c(N3CCN(C)CC3)nc3cc(F)c(F)cc3c2o1
A) > 10 µM

Q) Ok, now CN1CCN(c2nc3ccc(Cl)cc3c3cn(C)nc23)CC1
A) > 10 µM

Q) Proceed to Clc1ccc2c(c1)nc(N1CCNCC1)c1nnnn12
A) > 10 µM

Q) # repeat for CN1CCN(c2nc3cc(F)c(F)cc3n3nnnc23)CC1
A) > 10 µM

Q) Again, but for CN1CCN(c2nc3cc(Cl)c(C(F)(F)F)cc3n3cnnc23)CC1
A) > 10 µM

Q) Same thing, different compound: Cl.FC(F)(F)c1ccc2nc(N3CCNCC3)c3nnnn3c2c1 [Example 29, hydrochloride]
A) > 10 µM

Q) What do you get for NC1CCN(c2nc3ccc(Cl)cc3n3cnnc23)CC1 ?
A) > 10 µM

Q) Can you check Cc1nc2c3cc(OC(F)(F)F)ccc3nc(N3CCNCC3)n2n1 [Example 134, hydrochloride] next?
A) > 10 µM

Q) Then what about the compound Clc1ccc2nc(N3CCNCC3)c3n[nH]cc3c2c1 ?
A) < 10 µM

====

Target: human H4 (Homo sapiens, UniProt Q9H3N8)
Construct: host or cells: CHO-K1
Sequence (Q9H3N8 whole entry): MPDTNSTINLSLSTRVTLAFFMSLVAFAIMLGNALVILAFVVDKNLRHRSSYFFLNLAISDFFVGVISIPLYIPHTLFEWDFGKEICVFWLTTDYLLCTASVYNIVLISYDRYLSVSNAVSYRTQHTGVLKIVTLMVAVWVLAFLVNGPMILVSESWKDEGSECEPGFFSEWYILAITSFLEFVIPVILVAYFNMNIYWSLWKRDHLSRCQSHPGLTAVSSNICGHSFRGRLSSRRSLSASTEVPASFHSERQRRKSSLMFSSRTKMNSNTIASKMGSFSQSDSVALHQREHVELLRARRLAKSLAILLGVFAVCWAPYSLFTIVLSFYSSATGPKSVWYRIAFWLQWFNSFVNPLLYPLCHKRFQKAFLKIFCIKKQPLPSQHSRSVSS
Experiment: In vitro histamine receptor cell-based assay (aequorin bioluminescence), H4 antagonism
Details: CHO-K1 cells expressing human H4, aequorin and Gα16; histamine at EC80; read-out: H4 Antagonist EC50
Counter-ions that a name gives are not always drawn.
Provide the recorded EC50 for the entries that follow.

Q) For the compound shown here, Cc1nc2c(N3CCN(C)CC3)nc3ccc(Cl)cc3c2o1 [Example 143] , give the reported EC50.
A) < 10 µM

Q) Now try Clc1ccc2c(c1)N1CCN=C1C(N1CCNCC1)=N2 [Example 6] .
A) < 10 µM

Q) Also check Cc1nc2c(N3CCNCC3)nc3ccc(Cl)cc3c2o1 [Example 144]
A) < 10 µM

Q) Cool, now CN1CCN(c2nc3ccc(Br)cc3n3nnnc23)CC1 [Example 204]
A) < 10 µM

Q) Likewise for CN1CCN(c2nc3cc(Cl)ccc3n3nnnc23)CC1 [Example 17] ?
A) < 10 µM

Q) What would you report for Cn1cc2c(n1)c(N1CCNCC1)nc1ccc(Br)cc12 [Example 235] ?
A) < 10 µM

Q) Also CN1CCN(C2=Nc3ccc(Cl)cc3N3CCN=C23)CC1 [Example 5] , if possible.
A) < 10 µM

Q) Another compound to check: CN1CCN(c2nc3cc(F)c(Cl)cc3n3cnnc23)CC1 [Example 31]
A) < 10 µM

Q) Also need CN1CCN(c2nc3cc(Cl)ccc3c3conc23)CC1 [Example 224] , thanks.
A) < 10 µM

Q) Same question for Cc1nc2c3cc(Cl)c(C(F)(F)F)cc3nc(N3CCNCC3)n2n1 [Example 132, hydrochloride] please.
A) < 10 µM

Q) Lookup CN1CCN(c2nc3cc(C(F)(F)F)ccc3n3nnnc23)CC1 [Example 28]
A) < 10 µM

Q) Continue with Clc1ccc2nc(NCCN3CCOCC3)c3nncn3c2c1 [Example 71]
A) > 10 µM

Q) Param item: C=Cc1ccc2nc(N3CCN(C)CC3)n3nc(C)nc3c2c1 [Example 137]
A) < 10 µM

Q) Repeat with CCc1ccc2nc(N3CCNCC3)n3nc(C)nc3c2c1 [Example 140]
A) < 10 µM

Q) Follow-up entry: Cc1cn2c(n1)c(N1CCN(C)CC1)nc1ccc(Cl)cc12 [Example 9]
A) < 10 µM

Q) And then CNCCOc1nc2ccc(Cl)cc2n2cnnc12 [Example 80] , what is it?
A) > 10 µM

Q) Lookup Cn1cc2c(n1)c(N1CCNCC1)nc1ccc(C(F)(F)F)cc12 [Example 156, HCl salt]
A) < 10 µM

Q) Entry to check: FC(F)(F)c1ccc2nc(N3CCNCC3)c3nccn3c2c1 [Example 178, hydrochloride]
A) < 10 µM

Q) Would you kindly repeat that for Clc1ccc2nc(N3CC4CC3CN4)c3nncn3c2c1 (stereo not shown) [Example 67] ?
A) < 10 µM

Q) Thanks! And CN1CC2CN(c3nc4ccc(Cl)cc4n4cnnc34)CC2C1 (stereo not shown) [Example 62] ?
A) < 10 µM

Q) Try CN1CCN(c2nc3ccc(Cl)cc3c3cn(C)nc23)CC1 [Example 150] next.
A) < 10 µM

Q) Proceed to Cc1ccc2nc(N3CCNCC3)n3nc(C)nc3c2c1 [Example 100]
A) > 10 µM

Q) Now this one: Cc1nc2c3cc(F)c(F)cc3nc(N3CCNCC3)n2n1 [Example 98]
A) < 10 µM

Q) Follow-up entry: Clc1ccc2nc(N3CCNCC3)c3nncn3c2c1 [Example 57]
A) < 10 µM

Q) // query: CN1CCN(c2nc3cc(F)c(Br)cc3n3nnnc23)CC1 [Example 212]
A) < 10 µM

Q) And for CN1CC[C@H](COc2nc3ccc(Cl)cc3n3cnnc23)C1 [Example 76] ?
A) > 10 µM

Q) Queued: CN1CCN(c2nc3ccc(C(F)(F)F)cc3c3conc23)CC1 [Example 218]
A) < 10 µM

Q) And CC(C)(C)OC(=O)N1CCN(c2nc3ccc(Cl)cc3n3cnnc23)CC1 [Example 56] ?
A) > 10 µM

Q) Same question for Fc1cc2nc(N3CCNCC3)c3nocc3c2cc1F [Example 227] please.
A) < 10 µM

Q) Again, but for CN1CCN(c2nc3ccccc3n3cnnc23)CC1 [Example 58]
A) < 10 µM

Q) Likewise for Clc1ccc2nc(OCC3CNC3)c3nncn3c2c1 [Example 75] ?
A) > 10 µM

Q) Now this one: CN1CCN(c2nc3cc(C(F)(F)F)c(F)cc3n3cnnc23)CC1 [Example 42]
A) < 10 µM

Q) Now the same for Brc1ccc2c(c1)nc(N1CCNCC1)c1nncn12 [Example 53]
A) > 10 µM

Q) Repeat with CC(C)c1nc2c3cc(Cl)ccc3nc(N3CCN(C)CC3)n2n1 [Example 116]
A) > 10 µM

Q) Entry to check: Cc1ccc2nc(N3CCNCC3)c3nncn3c2c1 [Example 22]
A) < 10 µM

Q) Also need Cc1nc2c3cc(Cl)c(F)cc3nc(N3CCNCC3)n2n1 [Example 96] , thanks.
A) < 10 µM

Q) CN1CCC(c2nc3ccc(Cl)cc3n3cnnc23)CC1 [Example 4] ?
A) < 10 µM

Q) Please answer likewise for Cc1cc2nc(N3CCN(C)CC3)c3nncn3c2cc1F [Example 36]
A) < 10 µM

Q) Next: Cc1nc2c(N3CCNCC3)nc3ccc(Cl)cc3n2n1 [Example 164]
A) < 10 µM

Q) Follow-up item: Cc1nc2c3cc(C(F)(F)F)c(Cl)cc3nc(N3CCN(C)CC3)n2n1 [Example 122]
A) < 10 µM
